Origin of measurements: patent US5962294A

# maps each entry to its Relative activity (%) Rat
Biological target: rat ST3N (Rattus norvegicus)
Sequence (Q02734 29-374 limits assumed): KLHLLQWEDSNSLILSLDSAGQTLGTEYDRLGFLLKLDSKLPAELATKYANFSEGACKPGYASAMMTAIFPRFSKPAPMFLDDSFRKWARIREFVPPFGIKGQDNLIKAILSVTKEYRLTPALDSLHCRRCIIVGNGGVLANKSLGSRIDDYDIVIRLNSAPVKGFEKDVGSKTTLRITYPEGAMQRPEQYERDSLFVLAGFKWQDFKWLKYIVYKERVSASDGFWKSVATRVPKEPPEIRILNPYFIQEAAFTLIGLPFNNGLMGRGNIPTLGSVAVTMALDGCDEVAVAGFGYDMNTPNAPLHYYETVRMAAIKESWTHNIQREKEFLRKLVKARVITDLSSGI
Test: Acceptor specificity of soluble rat ST3N fusion protein (Table 3)
Conditions: acceptor 0.2 mM; relative to LNT
measureName: Relative activity (%) Rat

- CC(=O)N[C@H]1C(O)O[C@H](CO)[C@@H](O[C@@H]2O[C@H](CO)[C@H](O)[C@H](O)[C@H]2O)[C@@H]1O (stereo partly shown): 19
- CC(=O)N[C@H]1C(O)O[C@H](CO)[C@@H](O)[C@@H]1O[C@@H]1O[C@H](CO)[C@H](O)[C@H](O)[C@H]1O (stereo partly shown): 49
- CC(=O)N[C@H]1[C@H](O[C@H]2[C@@H](O)[C@@H](CO)O[C@@H](O[C@H]3[C@H](O)[C@@H](O)C(O)O[C@@H]3CO)[C@@H]2O)O[C@H](CO)[C@@H](O[C@@H]2O[C@H](CO)[C@H](O)[C@H](O)[C@H]2O)[C@@H]1O (stereo partly shown): 4
- CC(=O)N[C@H]1[C@H](O[C@H]2[C@@H](O)[C@@H](CO)O[C@@H](O[C@H]3[C@H](O)[C@@H](O)C(O)O[C@@H]3CO)[C@@H]2O)O[C@H](CO)[C@@H](O)[C@@H]1O[C@@H]1O[C@H](CO)[C@H](O)[C@H](O)[C@H]1O (stereo partly shown): 100

* * *

Target: ST3O (Sus scrofa)
Sequence (Q02745 28-343 limits assumed): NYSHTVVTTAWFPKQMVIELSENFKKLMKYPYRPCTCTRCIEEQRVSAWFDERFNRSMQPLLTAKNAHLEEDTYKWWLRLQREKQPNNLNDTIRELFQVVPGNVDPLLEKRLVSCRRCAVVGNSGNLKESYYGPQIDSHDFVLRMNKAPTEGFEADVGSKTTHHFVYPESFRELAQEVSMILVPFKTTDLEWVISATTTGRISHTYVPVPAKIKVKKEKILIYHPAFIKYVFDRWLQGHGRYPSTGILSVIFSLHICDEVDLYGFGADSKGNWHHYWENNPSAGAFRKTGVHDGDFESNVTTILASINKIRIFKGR
Assay: Acceptor specificity of ST3O (Table 4)
Conditions: acceptor 0.2 mM
measureName: Relative rate (%) ST30

- CC(=O)N[C@H]1[C@H](O[C@H]2[C@@H](O)[C@@H](CO)O[C@@H](O[C@H]3[C@H](O)[C@@H](O)C(O)O[C@@H]3CO)[C@@H]2O)O[C@H](CO)[C@@H](O[C@@H]2O[C@@H](C)[C@@H](O)[C@@H](O)[C@@H]2O)[C@@H]1O[C@@H]1O[C@H](CO)[C@H](O)[C@H](O)[C@H]1O (stereo partly shown) [Galβ1,3(Fucα1,4)GlcNAcβ1,3Galβ1,4Glc]: 0

* * *

Molecular target: UniProtKB Q02734
Assay: Acceptor specificity of ST3N (Table 4)
Conditions: acceptor 0.2 mM
# maps each entry to its Relative rate (%) ST3N
measureName: Relative rate (%) ST3N

- CC(=O)N[C@H]1[C@H](O[C@H]2[C@@H](O)[C@@H](CO)O[C@@H](O[C@H]3[C@H](O)[C@@H](O)C(O)O[C@@H]3CO)[C@@H]2O)O[C@H](CO)[C@@H](O[C@@H]2O[C@H](CO)[C@H](O)[C@H](O)[C@H]2O)[C@@H]1O[C@@H]1O[C@@H](C)[C@@H](O)[C@@H](O)[C@@H]1O (stereo partly shown): 0
- CC(=O)N[C@H]1[C@H](O[C@H]2[C@@H](O)[C@@H](CO)O[C@@H](O[C@H]3[C@H](O)[C@@H](O)C(O)O[C@@H]3CO)[C@@H]2O)O[C@H](CO)[C@@H](O[C@@H]2O[C@@H](C)[C@@H](O)[C@@H](O)[C@@H]2O)[C@@H]1O[C@@H]1O[C@H](CO)[C@H](O)[C@H](O)[C@H]1O (stereo partly shown): 0
- CC(=O)N[C@H]1C(O)O[C@H](CO)[C@H](O)[C@@H]1O[C@@H]1O[C@H](CO)[C@H](O)[C@H](O)[C@H]1O (stereo partly shown): 3
- CC(=O)N[C@H]1[C@H](O[C@H]2[C@@H](O)[C@@H](CO)O[C@@H](O[C@H]3[C@H](O)[C@@H](O)C(O)O[C@@H]3CO)[C@@H]2O)O[C@H](CO)[C@@H](O)[C@@H]1O[C@@H]1O[C@H](CO)[C@H](O)[C@H](O)[C@H]1O (stereo partly shown): 100
